# Tested on: SN12C cells
# assay overview: In vitro cytotoxicity / cell growth inhibition, renal cancer
# Format: cell-based
# assay setup: Homo sapiens, 48 hr, read-out: log10 G150 (converted)
value type: GI50
Put down the number, then write its unit next to it.

1) CC1CN1CCCNCCCCNCCCN1CC1C (stereo not shown) [Synthesis Example 4]	9.77 µM

Respectfully, I request GI50 for each entry included below.
1. C(CNCCCN1CC1)CNCCCN1CC1 [Synthesis Example 2, 1,11-Diaziridinyl-4,8-diazaundecane]
2. C(CCNCCCN1CC1)CNCCCN1CC1 [Synthesis Example 1, 1,12-Diaziridinyl-4,9-diazadodecane]
3. CC(CCNCCCCNCCC(C)N1CC1)N1CC1 (stereo not shown) [Synthesis Example 3, 2,13-Diaziridinyl-5,10-diazatetradecane]

Out:
1. 6.76 µM
2. 0.135 µM
3. 9.55 µM
